Cited source: patent US4994448A

I'd appreciate it if you could supply Therapeutical index TI (Reserpin ptosis antagonism) values for the items below.
System: Reserpin ptosis
test_method_notes: Reserpin ptosis antagonism on mice
Type: in vivo
experimental_context: TI
Protocol: The average ptosis is calculated on the basis of all measurements in each group and expressed as the percentage of the deviation (ptosis) from the control group. Groups consisting of 10 mice are used for each does. The animals are treated with a 6 mg./kg. s.c. dose of reserpine, the test compound is administered after 60 minutes. The control animals receive a vehicle. The animals with closed eye-lids are counted in each group after 60 and 120 minutes. […]
Enter a number only.

# return recorded Therapeutical index TI (Reserpin ptosis antagonism) for input c1ccc(CNc2nc3c4ccccc4cc[n+]3nc2-c2ccccc2)cc1
11.0

# return recorded Therapeutical index TI (Reserpin ptosis antagonism) for input Cn1c(=O)c(-c2ccccc2)n[n+]2c3ccccc3ccc12
50.0

# return recorded Therapeutical index TI (Reserpin ptosis antagonism) for input O=c1nc2c3ccccc3ccn2nc1-c1ccccc1
60.6

# return recorded Therapeutical index TI (Reserpin ptosis antagonism) for input Cc1n[n+]2c3ccccc3ccc2n(C)c1=O
25.0

# return recorded Therapeutical index TI (Reserpin ptosis antagonism) for input CN(C)CCC=C1c2ccccc2CCc2ccccc21 [Amitriptylin, reference compound]
3.5

====

Test system: writhing (acetic acid)
test_method_notes: Analgesic effect, acetic acid writhing test on mice
Assay type: in vivo
experimental_context: mouse, in vivo, po
Kind request: treat 7 as inclusive, so Therapeutical index (writhing test) at 7 or higher is class 1, anything lower is class 0.

Record Cc1n[n+]2ccc3ccccc3c2[nH]c1=O ; criterion: Therapeutical index (writhing test) no lower than 7. Met?
class 1

Record Cc1n[n+]2ccc3ccccc3c2nc1N ; criterion: Therapeutical index (writhing test) no lower than 7. Met?
class 0

Record O=c1[nH]c2ccc3ccccc3[n+]2nc1-c1ccccc1 ; criterion: Therapeutical index (writhing test) no lower than 7. Met?
class 1

Record CC1=N[n+]2ccc3ccccc3c2NC1(C)O (centres unmarked) ; criterion: Therapeutical index (writhing test) no lower than 7. Met?
class 1

====

Tested on: Tetrabenazine ptosis
test_method_notes: Tetrabenazine antagonism on mice (ptosis)
Type: in vivo
experimental_context: TI
measurement_name: Therapeutical index TI (Tetrabenazine ptosis antagonism)
Enter a number only.

# return recorded Therapeutical index TI (Tetrabenazine ptosis antagonism) for input OCCNc1cn[n+]2ccc3ccccc3c2n1
10.0

# return recorded Therapeutical index TI (Tetrabenazine ptosis antagonism) for input Cc1n[n+]2ccc3ccccc3c2nc1N
41.3

# return recorded Therapeutical index TI (Tetrabenazine ptosis antagonism) for input CN(C)CCC=C1c2ccccc2CCc2ccccc21 [Amitriptylin, reference compound]
18.7

# return recorded Therapeutical index TI (Tetrabenazine ptosis antagonism) for input Cc1n[n+]2ccc3ccccc3c2nc1NCCO
70.0

====

test_method_notes: Acute toxicity on mice
experimental_context: mouse, in vivo, po, 7 days observation, Litchfield-Wilcoxon
I'd appreciate it if you could supply LD50 at 168 h values for the items below.
# unit: mg/kg | format: bare number

# return recorded LD50 at 168 h for input OC1C=N[n+]2ccc3ccccc3c2N1 (stereo not shown) [Example 16]
650

# return recorded LD50 at 168 h for input Nc1nc2c3ccccc3cc[n+]2nc1-c1ccccc1 [Example 39]
500

# return recorded LD50 at 168 h for input OCCNc1nc2c3ccccc3cc[n+]2nc1-c1ccccc1 [Example 37]
750

# return recorded LD50 at 168 h for input Cc1n[n+]2c(ccc3ccccc32)nc1NCCO [Example 24]
130

# return recorded LD50 at 168 h for input O=c1cn[n+]2c(ccc3ccccc32)[nH]1 [Example 26]
450

# return recorded LD50 at 168 h for input OCCNc1nc2ccc3ccccc3[n+]2nc1-c1ccccc1 [Example 25]
500

# return recorded LD50 at 168 h for input c1ccc2c(c1)cc[n+]1ncc(N3CCOCC3)nc21 [Example 2]
450

# return recorded LD50 at 168 h for input Cc1n[n+]2c(ccc3ccccc32)[nH]c1=O [Example 21]
700

# return recorded LD50 at 168 h for input Cc1n[n+]2ccc3ccccc3c2nc1N1CCOCC1 [Example 34]
1200

# return recorded LD50 at 168 h for input Cc1n[n+]2ccc3ccccc3c2nc1NCCCN(C)C [Example 5]
2000

====

Test system: Hexobarbital narcosis
test_method_notes: Hexobarbital narcosis on mice
Format: in vivo
experimental_context: mouse, in vivo, po
measurement_name: Therapeutical index (Hexobarbital narcosis)
Enter a number only.

# return recorded Therapeutical index (Hexobarbital narcosis) for input Cc1n[n+]2ccc3ccccc3c2nc1N [Example 38]
22.4

# return recorded Therapeutical index (Hexobarbital narcosis) for input CN(C)CCCNc1nc2c3ccccc3cc[n+]2nc1-c1ccccc1 [Example 6]
24.3

# return recorded Therapeutical index (Hexobarbital narcosis) for input Cc1n[n+]2ccc3ccccc3c2[nH]c1=O [Example 9]
16.1

# return recorded Therapeutical index (Hexobarbital narcosis) for input CCCC(C)(COC(N)=O)COC(N)=O [Meprobamate, reference compound]
4.2

====

test_method_notes: Acute toxicity on mice
experimental_context: mouse, in vivo, po
Criterion: LD50 at 168 h strictly less than 500 mg/kg. Met: condition met. Not met: condition not met.

Given Cc1n[n+]2ccc3ccccc3c2[nH]c1=O [Example 9] , is recorded LD50 at 168 h strictly lower than 500 mg/kg?
condition not met

Given Cc1n[n+]2c3ccccc3ccc2n(C)c1=O [Example 17] , is recorded LD50 at 168 h strictly lower than 500 mg/kg?
condition not met

Given Cc1n[n+]2ccc3ccccc3c2nc1NCc1ccccc1 [Example 40] , is recorded LD50 at 168 h strictly lower than 500 mg/kg?
condition met

Given Cn1c(=O)c(-c2ccccc2)n[n+]2c3ccccc3ccc12 [Example 18] , is recorded LD50 at 168 h strictly lower than 500 mg/kg?
condition not met

Given O=c1nc2c3ccccc3ccn2nc1-c1ccccc1 [Example 11] , is recorded LD50 at 168 h strictly lower than 500 mg/kg?
condition not met

Given Cc1n[n+]2ccc3ccccc3c2nc1N [Example 38] , is recorded LD50 at 168 h strictly lower than 500 mg/kg?
condition met

Given CN(C)CCCNc1nc2c3ccccc3cc[n+]2nc1-c1ccccc1 [Example 6] , is recorded LD50 at 168 h strictly lower than 500 mg/kg?
condition not met

Given Cc1n[n+]2ccc3ccccc3c2nc1NCCO [Example 36] , is recorded LD50 at 168 h strictly lower than 500 mg/kg?
condition not met

Given CC1=N[n+]2ccc3ccccc3c2NC1(C)O (centres unmarked) [Example 1] , is recorded LD50 at 168 h strictly lower than 500 mg/kg?
condition met

Given c1ccc(CNc2nc3c4ccccc4cc[n+]3nc2-c2ccccc2)cc1 [Example 8] , is recorded LD50 at 168 h strictly lower than 500 mg/kg?
condition met
